assay comment: qHTS of pediatric cancer cell lines to identify multiple opportunities for drug repurposing: Primary screen for SJ-GBM2 cells (AID 1347091);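 also: plate controls were DMSO neutral control for no effect and bortezomib for full effect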
recorded conditions: SJ-GBM2 viability, CellTiter-Glo luminescence, 48 h; series mostly up to 46 µM
Results filed as inconclusive are left out. The source made the active and inactive calls. Calls follow the shape of the dose curve; as a rule, active = well fitted cell-killing curve with a large enough effect; inconclusive = small, poorly fitted or top-dose-only effect; inactive = no such curve, though single readings can be large or run the other way.
// one of 1 (active), -1 (inactive), no free text

Worked set:
Outcome logged for `C=C1C[C@@H]2[C@H](CC[C@]3(C)C(=O)CC[C@@H]23)[C@@]2(C)C=CC(=O)C=C12` in this assay:
-1

Can you handle CC[N+]1(C)CCCC(OC(=O)C(O)(c2ccccc2)c2ccccc2)C1 (configuration not stated) next?
-1

What do you have for `CCCN1CCC[C@@H]2Cc3nc(N)ncc3C[C@H]21` ?
-1

Do the same for `CCN(CC)C(=O)N[C@@H]1C=C2c3cccc4[nH]cc(c34)C[C@@H]2N(C)C1` please
-1

***
Kindly provide the recorded test outcome for the following molecule: `CC(=O)[C@H]1CC[C@H]2[C@@H]3CC[C@H]4C[C@](C)(O)CC[C@]4(C)[C@H]3CC[C@]12C`
-1

Follow-up entry: O=C(NC(O)C(Cl)(Cl)Cl)NC(O)C(Cl)(Cl)Cl (configuration not stated)
-1

Cool, now `CC(C)=CCOc1c2occc2cc2ccc(=O)oc12`
-1

###

assay comment: Quantitative High-Throughput drug screen in 47 multiple myeloma cell lines against the NCATS MIPE library collection: L363_DSMZ cell viability assay (AID 1918984); also: nearly all actives have a fitted effect of over 40% in size
recorded conditions: L363 myeloma viability, CellTiter-Glo ATP luminescence, 48 h; series mostly up to 45.8 µM
Results filed as inconclusive are left out. Activity calls are given as the source filed them. Calls come from the whole dose curve; as a rule, active = well fitted cell-killing curve with a large enough effect; inconclusive = small, poorly fitted or top-dose-only effect, or effect the other way; inactive = no such curve, though single readings can be large or run the other way.
Respond with a class label; see active, inactive

For `C#CCN(C)[C@H](C)Cc1ccccc1` , which call appears in the assay record?
inactive

Next molecule: CCCC(C)(COC(N)=O)COC(=O)NC(C)C (stereo not drawn)
inactive

Then what about the molecule COC[C@H]1OC(=O)c2coc3c2[C@@]1(C)C1=C(C3=O)C2CCC(=O)[C@@]2(C)C[C@H]1OC(C)=O (stereo partly drawn) ?
active

Further cases:
Recorded test outcome, item `C[C@@H]1[C@@H](C(=O)C[C@H]2O[C@@H]3O[C@]4(C)CC[C@@H]5[C@H](C)CC[C@@H]([C@H]2C)[C@@]35OO4)O[C@@H]2O[C@]3(C)CC[C@H]4[C@H](C)CC[C@@H]1[C@@]24OO3`
active

Another molecule: `Cc1sc2c(c1C)C(c1ccc(Cl)cc1)=N[C@@H](CC(=O)OC(C)(C)C)c1nnc(C)n1-2`
active

Same question, CC(C)CC(N(C)C)C1(c2ccc(Cl)cc2)CCC1 (stereo not drawn) this time
inactive

And for `CN(C)[C@@H]1C(=O)C(C(N)=O)=C(O)[C@@]2(O)C(=O)C3=C(O)c4c(O)cccc4[C@@](C)(O)[C@H]3C[C@@H]12` ?
inactive

Please give the result for CNC(=O)N1N=C(c2ccc(N)cc2)c2cc3c(cc2CC1C)OCO3 (stereo not drawn) too.
active

###

assay comment: Quantitative High-Throughput drug screen in 47 multiple myeloma cell lines against the NCATS MIPE library collection: EJM_DSMZ cell viability assay (AID 1918926; also: nearly all actives have a fitted effect of over 30% in size; also: potency is read from the fitted curve at half-maximal effect)
recorded conditions: EJM myeloma cell viability, CellTiter-Glo ATP, 48 h; series mostly up to 45.8 µM
Results filed as inconclusive are left out. The source made the active and inactive calls. Calls follow the shape of the dose curve; as a rule, active = well fitted cell-killing curve with a large enough effect; inconclusive = small, poorly fitted or top-dose-only effect, or effect the other way; inactive = no such curve, though single readings can be large or run the other way.
quantity: Potency

Example results:
Param item = `N[C@@H](Cc1ccc(N(CCCl)CCCl)cc1)C(=O)O` ; retrieve measured Potency.
14.8 µM (active)

Queued: O=P1(NCCCl)OCCCN1CCCl (stereo not given)
inactive

And what about the compound `Cn1cc(C2=C(c3cn(C4CCN(Cc5ccccn5)CC4)c4ccccc34)C(=O)NC2=O)c2ccccc21` ?
11.8 µM (active)

And `C=C(C)[C@H]1Cc2c(ccc3c2O[C@@H]2COc4cc(OC)c(OC)cc4[C@@H]2C3=O)O1` ?
4.69 µM (active)

Follow-up entry: `Cc1cccc(C)c1NC(=O)CN1CCCC1=O`
inactive

More entries:
// Potency lookup, key: `NCC1(CC(=O)O)CCCCC1`
inactive

Also need CC(O)(CS(=O)(=O)c1ccc(F)cc1)C(=O)Nc1ccc(C#N)c(C(F)(F)F)c1 (stereo not given) , thanks.
0.187 µM (active)

These entries and their values trace back to PubChem BioAssay (NCATS).
